- test_description: chemical genetic growth profiling, strain panel (AID 1159580);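 further: tested at 20 µM; growth read once vehicle control cultures reached saturation at 30 °C; 1 = growth at the plate median or of vehicle wells; lower values mean less growth of the strain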
- measurement_setup: S. cerevisiae deletion strains, growth OD, locus YHR082C, strain KSP1, active compounds read low
In all, about 5,500 compounds went through this assay and about 2,000 (36%) were called active. Not shown: some 18% with an inconclusive outcome. The list shows a part of the results.
experimental_endpoint: normalized growth
The response must contain the number and no unit.

Look over these answered cases.
| molecule | normalized growth |
| --- | --- |
| O=[N+]([O-])c1ccc(Sc2ccccc2)c([N+](=O)[O-])c1 | 0.719 |
| Cc1cc(N=Cc2cc(Cl)cc(Cl)c2O)no1 | 0.493 |
| O=C(Nc1cc(Cl)cc(Cl)c1)c1cc(Br)ccc1O | 0.964 |
| CCOC(=O)C(NC(=O)c1cccc(Cl)c1)(Nc1nc2ccccc2s1)C(F)(F)F (stereo unspecified) | 0.989 |

So what's the measured normalized growth for this one? CC1SC(c2cccnc2)N(c2ccc(F)cc2F)C1=O (stereo unspecified)
0.925

----------
- test_description: chemical genetic growth profiling, strain panel (AID 1159580)
- measurement_setup: S. cerevisiae deletion strains, growth OD, locus YAL021C, strain ccr4, active compounds read low
Out of some 5,500 compounds screened, about 2,000 (36%) were called active. About 18% were inconclusive and are not listed. The list shows a part of the results.
experimental_endpoint: normalized growth

Some entries whose results are on file:
| compound | experimental_endpoint | result |
| --- | --- | --- |
| C=C(C)C1Cc2c(ccc3c(=O)c4c(oc23)COc2cc(OC)c(OC)cc2-4)O1 (stereo not given) | normalized growth | 1.01 (inactive) |
| CC(C)[C@@H]1CC[C@@H](C)CC1=O | normalized growth | 0.945 (inactive) |
| ClC1C(Cl)C(Cl)C(Cl)C(Cl)C1Cl (stereo not given) | normalized growth | 0.997 (inactive) |
| Cn1c(=O)c2c(ncn2C)n(C)c1=O | normalized growth | 1.01 (inactive) |
| CON | normalized growth | 0.994 (inactive) |
| O=C(O)C1=C(CSc2nnnn2CS(=O)(=O)O)CS[C@@H]2C(NC(=O)[C@H](O)c3ccccc3)C(=O)N12 (stereo not given in full) | normalized growth | 0.955 (inactive) |
| COC(=O)CC1C(C)(C(=O)c2ccoc2)CC2OCC34C(CC(=O)OC)C5(C)CC36OC3(C)OC1(C(OC(C)=O)C6(OC(C)=O)C5OC(=O)C(C)C)C24O3 (stereo not given) | normalized growth | 0.995 (inactive) |
| CN1CCCCC1c1ccc(-c2cccnc2)nc1 (stereo not given) | normalized growth | 0.987 (inactive) |

Bench note: what normalized growth did CC(=O)OC[C@@]1(O)C[C@@]23CCC4c5ccoc5CC[C@]4(C)C2CC[C@@H]1C3 (stereo not given in full) show?
1.03 (inactive)

Look at this compound and give its reported normalized growth. C[N+]12CCC(CC1)C(OC(=O)C(O)(c1ccccc1)c1ccccc1)C2 (stereo not given)
0.983 (inactive)

What value of normalized growth has been reported for the following compound? COc1cc(Cc2cnc(N)nc2N)cc(OC)c1OC
1.02 (inactive)

----------
- test_description: chemical genetic growth profiling, strain panel (AID 1159580)
- measurement_setup: S. cerevisiae deletion strains, growth OD, locus YEL061C, strain CIN8 (second series), active compounds read low
In all, about 5,500 compounds went through this assay and about 2,000 (36%) were called active. Inconclusive results (about 18%) are left out. The list shows a part of the results.
# normalized growth values compiled below
Give a plain numeric answer without units written out.

Reference set, count: 5
| molecule | normalized growth |
| --- | --- |
| O=C(/C=C/c1ccc(O)cc1)c1ccc(O)cc1O | 1.01 |
| O=C(/C=C/c1ccc(O)cc1)c1ccccc1O | 0.175 |
| OC[C@H]1O[C@@H](Oc2ccc(O)cc2)[C@H](O)[C@@H](O)[C@@H]1O | 1.01 |
| CC(=O)OC[C@@]1(O)C[C@@]23CCC4c5ccoc5CC[C@]4(C)C2CC[C@@H]1C3 (stereo not given in full) | 1 |
| O=c1c(O)c(-c2ccccc2)oc2ccc3occc3c12 | 0.71 |

# lookup: normalized growth of COc1cc(O)c2c(c1)C(=O)c1cc(C)cc(O)c1C2=O
0.995

Return reported normalized growth; argument: CCCc1ncc(C[n+]2ccccc2C)c(N)n1
0.988

Would you kindly share the measured normalized growth for CO/N=C(/C(=O)NC1C(=O)N2C(C(=O)OCOC(=O)C(C)(C)C)=C(/C=C\c3scnc3C)CSC12)c1csc(N)n1 (stereo not given) ?
0.985

Can you look up the measured normalized growth of CC(=O)c1c(O)cc(O)cc1O for me?
0.961

Field request: normalized growth | item: COC(=O)CC1C(C)(C(=O)c2ccoc2)CC2OCC34C(CC(=O)OC)C5(C)CC36OC3(C)OC1(C(OC(C)=O)C6(OC(C)=O)C5OC(=O)C(C)C)C24O3 (stereo not given)
0.975

----------
- test_description: chemical genetic growth profiling, strain panel (AID 1159580);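 further: tested at 20 µM; growth read once vehicle control cultures reached saturation at 30 °C; 1 = growth at the plate median or of vehicle wells; lower values mean less growth of the strain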
- measurement_setup: S. cerevisiae deletion strains, growth OD, locus YDR318W, strain mcm21, active compounds read low
Out of some 5,500 compounds screened, about 2,000 (36%) were called active. Another 18% or so got no clear call; they are omitted. Some of the results follow.
experimental_endpoint: normalized growth
When you answer, write just the number.

| compound | experimental_endpoint | measured_number |
| --- | --- | --- |
| COc1cc(O)c2c(c1)C(=O)c1cc(C)cc(O)c1C2=O | normalized growth | 0.971 |
| O[C@H]1[C@H](O)[C@@H](O)C2OC[C@H]1O2 | normalized growth | 0.998 |

Which normalized growth value is on record for CC(=O)OC[C@@]1(O)C[C@@]23CCC4c5ccoc5CC[C@]4(C)C2CC[C@@H]1C3 (stereo partly specified) ?
0.911

GET /values?readout=normalized growth&item= O=C(O)c1cccnc1C(=O)O
0.997

Need normalized growth, item CN1CCCCC1c1ccc(-c2cccnc2)nc1 (stereo unspecified)
1

Reported normalized growth for Cc1cc(O)c2c(c1)C(=O)c1cc(O)cc(O)c1C2=O : what is it?
0.712

----------
Reported normalized growth by item:
- test_description: chemical genetic growth profiling, strain panel (AID 1159580);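 further: tested at 20 µM; growth read once vehicle control cultures reached saturation at 30 °C; 1 = growth at the plate median or of vehicle wells; lower values mean less growth of the strain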
- measurement_setup: S. cerevisiae deletion strains, growth OD, locus YKL190W, strain CNB1, active compounds read low
Screen size: about 5,500 compounds; about 2,000 (36%) were called active. Not shown: some 18% with an inconclusive outcome. The list shows a part of the results.
Please reply with the value in numeric form only.

The examples below pair each entry with its known result.
| molecule | normalized growth |
| --- | --- |
| O=[N+]([O-])c1cc(C(F)(F)F)ccc1Sc1ccc(Cl)cc1 | 1.01 |
| COc1ccccc1N1CC(C)(C)C(=O)N(C(=O)c2c(F)cccc2Cl)C1=S | 1 |
| Cn1c(Sc2ccc(C(F)(F)F)cc2[N+](=O)[O-])nnc1C(F)(F)F | 1.01 |

Which normalized growth reading was recorded for the molecule O=C(/C=C/c1ccccc1)c1c(O)cc(O)cc1O ?
1.01

What measured normalized growth goes with O[C@H]1[C@H](O)[C@@H](O)C2OC[C@H]1O2 ?
0.98

GET /values?readout=normalized growth&item= Cc1cc(O)c2c(c1)C(=O)c1cc(O)cc(O)c1C2=O
0.823

----------
- test_description: chemical genetic growth profiling, strain panel (AID 1159580);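 further: tested at 20 µM; growth read once vehicle control cultures reached saturation at 30 °C; 1 = growth at the plate median or of vehicle wells; lower values mean less growth of the strain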
- measurement_setup: S. cerevisiae deletion strains, growth OD, locus YJR043C, strain POL32, active compounds read low
Hit rate of the full screen: of about 5,500 compounds, about 2,000 (36%) were called active. Not shown: some 18% with an inconclusive outcome. This is one part of the list.
Mark each entry Fulfilled if its normalized growth sits below 1, and Not fulfilled for all others.

Look over these answered cases.
| item_smiles | cat |
| --- | --- |
| CCOC(=O)CC(=O)CSc1nnc(N)s1 | Not fulfilled |
| Nc1c(Cl)cc(C(=O)Nc2cc(Cl)cc(Cl)c2)cc1Cl | Fulfilled |
| CNC(=O)N(C)c1nnc(C(C)(C)C)s1 | Not fulfilled |
| Nc1cccc2c1C(=O)c1ccccc1-2 | Fulfilled |
| CCCCCC/C=C\CCCCCCCc1cccc(O)c1C(=O)O | Not fulfilled |
| O=C(Nc1ccc([N+](=O)[O-])cc1Cl)c1cc(Cl)ccc1O | Fulfilled |
| O=c1c(O)c(-c2ccccc2)oc2ccc3occc3c12 | Fulfilled |
| FC(F)(F)c1cc(-c2ccc(Cl)cc2)nc2cc(C3CC3)nn12 | Not fulfilled |

Consider the compound COc1c([N+](=O)[O-])cc(C(F)(F)F)cc1[N+](=O)[O-] . Is its normalized growth strictly less than 1?
Fulfilled

API: query returns whether the compound falls strictly under 1 in normalized growth. Query: Nc1ccccc1C(=O)NCCc1ccc(Cl)cc1
Fulfilled

Item O=c1c(O)c(-c2ccccc2)oc2cc(O)ccc12 : normalized growth beneath 1, strictly?
Fulfilled

Quick check: does O=[N+]([O-])c1cc(C(F)(F)F)cc([N+](=O)[O-])c1Oc1ccc(Cl)c(Cl)c1 have normalized growth under 1?
Fulfilled

Strictly below 1: is that where normalized growth of Cc1cc(Oc2c([N+](=O)[O-])cc(C(F)(F)F)cc2[N+](=O)[O-])c2c(Cl)ccc(C)c2n1 sits?
Fulfilled

Strictly below 1: is that where normalized growth of COc1ccc(Oc2ccc(C(F)(F)F)cc2[N+](=O)[O-])cc1 sits?
Fulfilled
